assayed.system: human orexin 1 receptor (Homo sapiens (Human))
Sequence (O43613 whole entry): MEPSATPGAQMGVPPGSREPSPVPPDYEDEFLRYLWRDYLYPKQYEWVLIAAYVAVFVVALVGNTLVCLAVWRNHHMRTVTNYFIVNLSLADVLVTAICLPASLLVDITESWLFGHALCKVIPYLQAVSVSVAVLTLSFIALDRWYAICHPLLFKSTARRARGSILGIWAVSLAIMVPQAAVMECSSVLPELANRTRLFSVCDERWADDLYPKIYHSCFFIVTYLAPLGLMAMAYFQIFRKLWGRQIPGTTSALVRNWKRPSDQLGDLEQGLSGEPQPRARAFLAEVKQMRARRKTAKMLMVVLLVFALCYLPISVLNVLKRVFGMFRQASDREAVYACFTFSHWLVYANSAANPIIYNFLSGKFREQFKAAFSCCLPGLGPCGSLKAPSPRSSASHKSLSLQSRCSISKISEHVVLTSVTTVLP
experiment.description: Human orexin 1 receptor radioligand binding (competitive, [3H]-SB674042, CHO cell preparations)
condition.context: human orexin 1 receptor, [3H]-SB674042 competition binding; read-out: hOX1 Ki (nm)
pKi: −log10 of the molar value.

| molecule | assayed.system | pKi |
| --- | --- | --- |
| Cc1ccnc(C(=O)N2C3CCC2C(COc2ccccn2)C3)c1-n1nccn1 (racemic) | human orexin 1 receptor (Homo sapiens (Human)) | 6.79 |
| O=C(c1ccccc1-n1nccn1)N1C2CCC1C(COc1ccc(F)cn1)C2 (racemic) | human orexin 1 receptor (Homo sapiens (Human)) | 7.33 |
| Cn1cc(-c2ccccc2)c(C(=O)N2C3CCC2C(COc2ccccn2)C3)n1 (racemic) | human orexin 1 receptor (Homo sapiens (Human)) | 7.18 |
| O=C(c1cccc(F)c1-n1nccn1)N1C2CCC1C(COc1cccc(C(F)(F)F)n1)C2 (racemic) | human orexin 1 receptor (Homo sapiens (Human)) | 6.74 |
| O=C(c1c(F)cccc1-c1ncccn1)N1C2CCC1C(COc1ccc(F)cn1)C2 (racemic) | human orexin 1 receptor (Homo sapiens (Human)) | 7.48 |
| Cc1noc(-c2ccccc2C(=O)N2C3CCC2C(COc2cnc4ccccc4n2)C3)n1 (racemic) | human orexin 1 receptor (Homo sapiens (Human)) | 6.66 |
| O=C(c1ccccc1-n1nccn1)N1C2CCC1C(COc1cnc3ccccc3n1)C2 (racemic) | human orexin 1 receptor (Homo sapiens (Human)) | 7.22 |
| Cc1cccc(OCC2CC3CCC2N3C(=O)c2nc(C)ccc2-n2nccn2)n1 (racemic) | human orexin 1 receptor (Homo sapiens (Human)) | 7.34 |
| Cc1ccc(-n2nccn2)c(C(=O)N2C3CCC2C(COc2cccc(C(F)(F)F)n2)C3)c1 (racemic) | human orexin 1 receptor (Homo sapiens (Human)) | 7.70 |
| Cc1ccc(-c2nc(C)no2)c(C(=O)N2C3CCC2C(COc2ccc(F)cn2)C3)n1 (racemic) | human orexin 1 receptor (Homo sapiens (Human)) | 6.53 |
| Cc1ccc(-n2nccn2)c(C(=O)N2C3CCC2C(COc2cccc(C)n2)C3)c1 (racemic) | human orexin 1 receptor (Homo sapiens (Human)) | 7.92 |
| O=C(c1cc(Cl)ccc1-n1nccn1)N1C2CCC1C(COc1ccc(F)cn1)C2 (racemic) | human orexin 1 receptor (Homo sapiens (Human)) | 7.85 |
| O=C(c1cc(F)ccc1-n1nccn1)N1C2CCC1C(COc1cnc3ccccc3n1)C2 (racemic) [Example 37] | human orexin 1 receptor (Homo sapiens (Human)) | 6.52 |
| Cc1ccc(-n2ccc(C)n2)c(C(=O)N2C3CCC2C(COc2ccc(F)cn2)C3)n1 (racemic) | human orexin 1 receptor (Homo sapiens (Human)) | 7.16 |

###

Reported pKi by item:
assayed.system: UniProtKB O43614
Sequence (O43614 whole entry): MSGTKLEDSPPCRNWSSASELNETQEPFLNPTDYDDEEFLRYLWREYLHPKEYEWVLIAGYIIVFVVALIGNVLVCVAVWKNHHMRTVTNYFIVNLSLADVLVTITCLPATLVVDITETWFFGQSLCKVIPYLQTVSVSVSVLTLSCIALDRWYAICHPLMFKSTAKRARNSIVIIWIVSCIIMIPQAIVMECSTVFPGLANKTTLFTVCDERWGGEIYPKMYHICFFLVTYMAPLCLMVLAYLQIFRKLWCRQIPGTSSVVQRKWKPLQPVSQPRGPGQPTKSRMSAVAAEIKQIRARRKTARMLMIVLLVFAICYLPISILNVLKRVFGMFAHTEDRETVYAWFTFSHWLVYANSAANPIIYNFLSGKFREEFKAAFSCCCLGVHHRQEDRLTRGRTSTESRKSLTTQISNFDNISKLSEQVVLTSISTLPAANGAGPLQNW
experiment.description: Human orexin 2 receptor radioligand binding (competitive, [3H]-EMPA, HEK293 cell preparations)
condition.context: human orexin 2 receptor, [3H]-EMPA competition binding; read-out: hOX2 Ki (nm)
pKi: −log10 of the molar value.

| compound | value.operator | pKi |
| --- | --- | --- |
| Cc1nc(C(=O)N2[C@@H]3CC[C@H]2[C@H](Nc2cnc(C(F)(F)F)cn2)C3)c(-c2ccc(F)cc2)s1 [Example 244] | = | 6.63 |
| Cc1cc(C)nc(OCC2CC3CCC2N3C(=O)c2ccc(C)nc2-n2ccnn2)n1 (racemic) [Example 152] | = | 5.23 |
| Cc1ccc(-n2nccn2)c(C(=O)N2C3CCC2C(COc2nccc(C(F)(F)F)n2)C3)c1 (racemic) [Example 13] | = | 6.96 |
| Cc1ccc(-c2ncccc2C)c(C(=O)N2C3CCC2C(COc2ccc(F)cn2)C3)n1 (racemic) [Example 65] | = | 5.21 |
| Cc1ccc(-n2nccn2)c(C(=O)N2C3CCC2C(Nc2ncc(C(F)(F)F)cn2)C3)n1 (racemic) [Example 223] | = | 5.40 |
| Cc1ccc(C(=O)N2C3CCC2C(COc2ccccn2)C3)c(-n2nccn2)n1 (racemic) [Example 128] | ≤ | 5.00 |
| Cn1c(C(=O)N2[C@@H]3CC[C@H]2[C@H](Nc2cnc(C(F)(F)F)cn2)C3)nc2ccccc21 [Example 251] | = | 5.28 |
| Cc1cc(C)nc(OCC2CC3CCC2N3C(=O)c2c(C)noc2-c2ccccc2)n1 (racemic) [Example 40] | = | 5.92 |
| O=C(c1cccc(F)c1I)N1[C@@H]2CC[C@H]1[C@H](Nc1ncc(C(F)(F)F)cn1)C2 [Example 277] | = | 5.13 |
| Cc1ccc(-c2ncccn2)c(C(=O)N2C3CCC2C(COc2ccc(F)cn2)C3)n1 (racemic) [Example 64] | = | 7.09 |
| Cc1cc(C)nc(OCC2CC3CCC2N3C(=O)c2ccccc2-c2cccs2)n1 (racemic) [Example 46] | = | 8.00 |
| Cc1ccc(-c2ncccn2)c(C(=O)N2C3CCC2C(Nc2cnc4ccccc4n2)C3)n1 (racemic) [Example 208] | = | 7.05 |
| Cc1ccc(N2CCN(C)CC2)c(C(=O)N2C3CCC2C(COc2ccccn2)C3)n1 (racemic) [Example 85] | < | 5.00 |
| COc1c(F)cccc1C(=O)N1C2CCC1C(Nc1ncc(C(F)(F)F)cn1)C2 (racemic) [Example 222] | < | 5.00 |
| Cn1ncc(C(=O)N2C3CCC2C(COc2ccccn2)C3)c1-c1ccccc1 (racemic) [Example 84] | = | 5.01 |
